Listed next: entries and their corresponding RAM network inhibition.
Test: RAM signaling pathway blockade in yeast – S. cerevisiae, Pdr1DBD-CYC8 efflux-inhibited sensitized strain, primary screen (AID 1298);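 further: 0% = DMSO untreated cells without growth and 100% = 10 µM 1-NA-PP1 full growth; higher means more yeast growth rescued from 5-FOA killing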
Conditions: S. cerevisiae cbk1-as DSE1-URA3 strain, 5-FOA growth OD615, 2 d; at 50 µM; hits give high values
Report only the number, with the unit % understood.

Tell me the measured RAM network inhibition of "COc1cc(SC)ccc1C(=O)Nc1ccc2c(c1)CCN2S(C)(=O)=O" , please.
4.39

Moving on to "O=C(Nc1ccc(N2CCN(C(=O)c3ccccc3)CC2)c(Cl)c1)c1ccco1"
5.57

Moving on to "CCC(=O)NCCc1cc2ccc(C)cc2[nH]c1=O"
0.78

Moving on to "O=C(c1ccc(CNc2c(N3CCOCC3)c(=O)c2=O)cc1)N1CC=C(c2ccccc2)CC1"
6.56

Moving on to CCOC(=O)Cn1c(=O)oc2cc(S(=O)(=O)NCC3CCCO3)ccc21 (stereo unspecified)
2.41
